Target Desc: FLT3-ITD-F691L-D835Y Ba/F3 cells (Homo sapiens, UniProt P36888, F691L/D835Y, cells depend on it, form not given)
Test Name: Growth inhibitory activity against Ba/F3 cell line
Format: cell-based
Run Conditions: Ba/F3 expressing FLT3-ITD-F691L-D835Y; 72 hours; cell titer glo; read-out: IC50 (uM) FLT3-ITD-F691L-D835Y
Structures can show the parent of a compound that is named as a salt.
Reported Endpoint: log10 GI50 (log10 of the value in µM)

compound=NC(=O)Nc1cc(CCc2cccc(F)c2)sc1C(=O)N[C@H]1CCCCNC1 reported_endpoint="log10 GI50" numeric_readout=0.01
compound=CC(=O)N1CCC(n2cc(C#Cc3cc(NC(N)=O)c(C(=O)N[C@H]4CCCCNC4)s3)cn2)CC1 reported_endpoint="log10 GI50" numeric_readout=-1.51
compound="COCCn1cc(C#Cc2cc(NC(N)=O)c(C(=O)N[C@H]3CCCCNC3)s2)cn1 [Example 45, trifluoroacetate]" reported_endpoint="log10 GI50" numeric_readout=-1.72
compound=NC(=O)Nc1cc(CCc2cccc(F)c2)sc1C(=O)N[C@H]1CCCNC1 reported_endpoint="log10 GI50" numeric_readout=-0.83
compound="Cn1cc(C#Cc2cc(NC(N)=O)c(C(=O)NC3CCNC3)s2)cn1 (stereo not shown) [Example 39, trifluoroacetate]" reported_endpoint="log10 GI50" numeric_readout=0.09
compound=NC(=O)Nc1cc(C#Cc2cccc(F)c2)sc1C(=O)N[C@H]1CCCCNC1 reported_endpoint="log10 GI50" numeric_readout=-2.22
compound="NC(=O)Nc1cc(C#Cc2cn[nH]c2)sc1C(=O)N[C@H]1CCCCNC1 [Example 42, trifluoroacetate]" reported_endpoint="log10 GI50" numeric_readout=-0.94

---

Test system: Parental Ba/F3 cells
Test Name: Growth inhibitory activity against Ba/F3 cell line
Type: cell-based
Run Conditions: BaF3; Parental Ba/F3 with mouse IL-3 1 ng/mL; 72 hours; cell titer glo
Reported Endpoint: IC50 (µM)

compound="Cc1ccc(C#Cc2cc(NC(N)=O)c(C(=O)N[C@H]3CCCNC3)s2)cc1 [Example 24]" reported_endpoint=IC50 unit_descriptor=µM comparison_operator== numeric_readout=1.29
compound="NC(=O)Nc1cc(CCc2cccc(F)c2)sc1C(=O)N[C@H]1CCCCNC1 [Example 54]" reported_endpoint=IC50 unit_descriptor=µM comparison_operator=> numeric_readout=33
compound="NC(=O)Nc1cc(C#Cc2n[nH]c3ccccc23)sc1C(=O)N[C@H]1CCCNC1 [Example 12]" reported_endpoint=IC50 unit_descriptor=µM comparison_operator=> numeric_readout=10
compound="N#Cc1cccc(C#Cc2cc(NC(N)=O)c(C(=O)N[C@H]3CCCNC3)s2)c1 [Example 6]" reported_endpoint=IC50 unit_descriptor=µM comparison_operator== numeric_readout=1.59
compound="NC(=O)Nc1cc(C#Cc2ccc(Cl)cc2)sc1C(=O)N[C@H]1CCCNC1 [Example 8]" reported_endpoint=IC50 unit_descriptor=µM comparison_operator== numeric_readout=0.36
compound="N#Cc1ccc(C#Cc2cc(NC(N)=O)c(C(=O)N[C@H]3CCCNC3)s2)cc1 [Example 11]" reported_endpoint=IC50 unit_descriptor=µM comparison_operator== numeric_readout=0.143
compound="NC(=O)Nc1cc(C#Cc2ccc([N+](=O)[O-])cc2)sc1C(=O)N[C@H]1CCCNC1 [Example 7]" reported_endpoint=IC50 unit_descriptor=µM comparison_operator== numeric_readout=1.86
compound="NC(=O)Nc1cc(C#Cc2ccnc(F)c2)sc1C(=O)N[C@H]1CCCNC1 [Example 21]" reported_endpoint=IC50 unit_descriptor=µM comparison_operator== numeric_readout=2.78
